biological target: CXCL6_HUMAN; assay: BLI
observation type: Kd (nM)
The reply should contain only the number, in nM.

### Prompt Entry P1156_IXORI (other) ADDDNELFTVQYCGMNCTKDEGGTWTGCTGKKEGCKCYHESGKNYGLCLSTEYTDFSQYGNPSDSEIEAAKPKRSDTLSH : reported Kd = ?
### Response 117
